- Tested on: Methicillin Resistant Staphylococcus aureus strain USA 300, NRS384
- assayExplanation: Minimum inhibitory concentration, broth micro-dilution (CLSI), S. aureus
- Type: cell-based
- conditionContext: Staphylococcus aureus, MRSA / NRS 384 / USA300, 22 h, MRSA USA 300 NRS384; 35° C., 22 hours; read-out: MIC (μg/mL) S. aureus
- Description: In vitro antimicrobial activity of each compound was determined by measuring minimal inhibitor concentrations (MICs) using the broth micro-dilution technique as approved by the Clinical and Laboratory Standards Institute (CLSI) (Methods for Dilution Antimicrobial Susceptibility Tests for Bacteria that Grow Aerobically; Approved Standard—Eighth Edition. CLSI document M07-A8. Wayne, Pa.: Clinical and Laboratory Standards; 2009). […]
What log10(MIC) was measured for each of the following?
In our notation, the value equals log10 of MIC in µg/mL.

# compound CCCCCCCCNCCCCC(=O)N(C)[C@@H]1C(=O)N[C@@H](C)C(=O)N[C@H](C(=O)NCC#N)Cc2ccc(OCCN)c(c2)-c2cc1ccc2OCCN ; its log10(MIC) = 0.18

Form field log10(MIC), entry CCCCCCCCCCCC(=O)N[C@@H](CCCCN)C(=O)N(C)[C@@H]1C(=O)N[C@@H](C)C(=O)N[C@H](C(=O)NCC#N)Cc2ccc(O)c(c2)-c2cc1ccc2O : -0.72

compound Cc1nc(-c2ccc(CC(C)C)cc2)ncc1C(=O)N[C@@H](CCN)C(=O)N(C)[C@@H]1C(=O)N[C@@H](C)C(=O)N[C@H](C(=O)NCC#N)Cc2ccc(OCCN)c(c2)-c2cc1ccc2OCCN , log10(MIC) observed: -1.64

// log10(MIC) lookup, compound = Cc1cc(C#Cc2ccccc2)ccc1C(=O)N[C@@H](CCN)C(=O)N(C)[C@@H]1C(=O)N[C@@H](C)C(=O)N[C@H](C(=O)NCC#N)Cc2ccc(OCCN)c(c2)-c2cc1ccc2OCCN , result: -1.33

Entry CCCCc1cnc(-c2ccc(C(=O)N[C@@H](CCN)C(=O)N(C)[C@@H]3C(=O)N[C@@H](C)C(=O)N[C@H](C(=O)NCC#N)Cc4ccc(OCCN)c(c4)-c4cc3ccc4OCCN)c(C)c2)nc1 ; log10(MIC) = -0.89

// field: log10(MIC); key: Cc1c(C(=O)N[C@@H](CCN)C(=O)N(C)[C@@H]2C(=O)N[C@@H](C)C(=O)N[C@H](C(=O)NCC#N)Cc3ccc(OCCN)c(c3)-c3cc2ccc3OCCN)cnn1-c1ccc(CC(C)C)cc1 ; value = -1.03

Measured log10(MIC), Cc1cc(-c2ccc(CC(C)C)cc2)ncc1C(=O)N[C@@H](CCN)C(=O)N(C)[C@@H]1C(=O)N[C@@H](C)C(=O)N[C@H](C(=O)NCC#N)Cc2ccc(OCCN)c(c2)-c2cc1ccc2OCCN : -1.64

Entry under test: CCC(C)c1ccc(C(=O)N[C@@H](CCN)C(=O)N(C)[C@@H]2C(=O)N[C@@H](C)C(=O)N[C@H](C(=O)NCC#N)Cc3ccc(OCCN)c(c3)-c3cc2ccc3OCCN)c(C)c1 (stereo partly shown) . Its log10(MIC) was -0.60

// CCCCCCCCCCCC(=O)N[C@@H](CO)C(=O)N(C)[C@@H]1C(=O)N[C@@H](C)C(=O)N[C@H](C(=O)NCC#N)Cc2ccc(OCCN)c(c2)-c2cc1ccc2OCCN : log10(MIC) value = -0.89

Value of measured log10(MIC) for the entry CCCCCCCc1cc(Cl)c(C(=O)N[C@@H](CCN)C(=O)N(C)[C@@H]2C(=O)N[C@@H](C)C(=O)N[C@H](C(=O)NCC#N)Cc3ccc(OCCN)c(c3)-c3cc2ccc3OCCN)c(Cl)c1 : -1.03
